Numbers sourced from ChEMBL document CHEMBL4177573.

Test system: Mus musculus
TEST_SUMMARY: Anorectic activity in C57BL/6J mouse assessed as inhibition of food intake at 0.3 mg/kg/day, sc dosed as […] and measured after 24 hrs
Assay type: functional
OBSERVED_PROPERTY: inhibition in vivo at 0.3 mg/kg/day (%)
Only the number, expressed in %, is required.

IN: Could you tell me which inhibition in vivo at 0.3 mg/kg/day is on file for CC[C@](C)(NC(=O)[C@H](CC1CCCCC1)NC(=O)[C@H](Cc1ccncc1)NC(=O)[C@](C)(CC)NC(=O)[C@H]1CCCN1C(=O)[C@H](CO)NC(C)=O)C(=O)N[C@@H](CC(N)=O)C(=O)N[C@@H](CCCCN)C(=O)NC(C)(C)C(=O)N[C@H](C(=O)N[C@@H](CCCNC(=N)N)C(=O)N[C@@H](CCC(N)=O)C(=O)N[C@@H](CCCNC(=N)N)C(=O)N[C@@H](CC1CCCCC1)C(N)=O)[C@@H](C)O ?
OUT: 16

IN: Requested read-out: inhibition in vivo at 0.3 mg/kg/day. Entry: CC[C@](C)(NC(=O)[C@H]1C[C@H](O)CN1C(=O)[C@H](CO)NC(=O)c1c[nH]cn1)C(=O)N[C@@H](Cc1ccncc1)C(=O)N[C@@H](CC1CCCCC1)C(=O)N[C@@H](CC(C)(C)C)C(=O)N[C@@H](CC(N)=O)C(=O)N[C@@H](CCCCN)C(=O)NC(C)(C)C(=O)N[C@H](C(=O)N[C@@H](CCCNC(=N)N)C(=O)N[C@@H](CCC(N)=O)C(=O)N[C@@H](CCCNC(=N)N)C(=O)N[C@@H](CC1CCCCC1)C(N)=O)[C@@H](C)O
OUT: 22

IN: Consider the compound shown here: CC[C@](C)(NC(=O)[C@H]1C[C@H](O)CN1C(=O)[C@H](CO)NC(C)=O)C(=O)N[C@@H](Cc1ccncc1)C(=O)N[C@@H](CC1CCCCC1)C(=O)N[C@@H](CC(C)(C)C)C(=O)N[C@@H](CC(N)=O)C(=O)N[C@@H](CCCCN)C(=O)NC(C)(C)C(=O)N[C@H](C(=O)N[C@@H](CCCNC(=N)N)C(=O)N[C@@H](CCC(N)=O)C(=O)N[C@@H](CCCNC(=N)N)C(=O)N[C@@H](CC1CCCCC1)C(N)=O)[C@@H](C)O What is its recorded inhibition in vivo at 0.3 mg/kg/day?
OUT: 8

IN: Which measured inhibition in vivo at 0.3 mg/kg/day value corresponds to CC[C@](C)(NC(=O)[C@H](CC1CCCCC1)NC(=O)[C@H](Cc1ccncc1)NC(=O)[C@](C)(CC)NC(=O)[C@H]1C[C@H](O)CN1C(=O)[C@H](CO)NC(C)=O)C(=O)N[C@@H](CC(N)=O)C(=O)N[C@@H](CCCCN)C(=O)NC(C)(C)C(=O)N[C@H](C(=O)N[C@@H](CCCNC(=N)N)C(=O)N[C@@H](CCC(N)=O)C(=O)N[C@@H](CCCNC(=N)N)C(=O)N[C@@H](CC1CCCCC1)C(N)=O)[C@@H](C)O ?
OUT: 23

IN: Which value of inhibition in vivo at 0.3 mg/kg/day has been reported for CC[C@](C)(NC(=O)[C@H](CC1CCCCC1)NC(=O)[C@H](Cc1ccncc1)NC(=O)[C@H](CCCNC(=N)N)NC(=O)[C@H]1CCCN1C(=O)[C@H](CO)NC(C)=O)C(=O)N[C@@H](CC(N)=O)C(=O)N[C@@H](CCCCN)C(=O)NC(C)(C)C(=O)N[C@H](C(=O)N[C@@H](CCCNC(=N)N)C(=O)N[C@@H](CCC(N)=O)C(=O)N[C@@H](CCCNC(=N)N)C(=O)N[C@@H](CC1CCCCC1)C(N)=O)[C@@H](C)O in the records?
OUT: 23

IN: I am curious: what inhibition in vivo at 0.3 mg/kg/day value has been reported for CC[C@](C)(NC(=O)[C@H]1CCCN1C(=O)[C@H](CO)NC(C)=O)C(=O)N[C@@H](Cc1ccncc1)C(=O)N[C@@H](CC1CCCCC1)C(=O)N[C@@H](CC(C)(C)C)C(=O)N[C@@H](CC(N)=O)C(=O)N[C@@H](CCCCN)C(=O)NC(C)(C)C(=O)N[C@H](C(=O)N[C@@H](CCCNC(=N)N)C(=O)N[C@@H](CCC(N)=O)C(=O)N[C@@H](CCCNC(=N)N)C(=O)N[C@@H](CC1CCCCC1)C(N)=O)[C@@H](C)O ?
OUT: 1

IN: Reported inhibition in vivo at 0.3 mg/kg/day for CC(=O)N[C@@H](CO)C(=O)N1CCC[C@@H]1C(=O)N[C@@H](CCCNC(=N)N)C(=O)N[C@@H](Cc1ccncc1)C(=O)N[C@@H](CC1CCCCC1)C(=O)NC(C)(C)C(=O)N[C@@H](CC(N)=O)C(=O)N[C@@H](CCCCN)C(=O)NC(C)(C)C(=O)N[C@H](C(=O)N[C@@H](CCCNC(=N)N)C(=O)N[C@@H](CCC(N)=O)C(=O)N[C@@H](CCCNC(=N)N)C(=O)N[C@@H](CC1CCCCC1)C(N)=O)[C@@H](C)O : what is it?
OUT: 15

IN: What measured inhibition in vivo at 0.3 mg/kg/day goes with CC[C@](C)(NC(=O)[C@H]1CCCN1C(=O)[C@H](CO)NC(C)=O)C(=O)N[C@@H](Cc1ccncc1)C(=O)N[C@@H](CC1CCCCC1)C(=O)NC(C)(C)C(=O)N[C@@H](CC(N)=O)C(=O)N[C@@H](CCCCN)C(=O)NC(C)(C)C(=O)N[C@H](C(=O)N[C@@H](CCCNC(=N)N)C(=O)N[C@@H](CCC(N)=O)C(=O)N[C@@H](CCCNC(=N)N)C(=O)N[C@@H](CC1CCCCC1)C(N)=O)[C@@H](C)O ?
OUT: 7

----------
TESTED_SYSTEM: Neuropeptide Y receptor type 2 (Homo sapiens)
Sequence (P49146 whole entry): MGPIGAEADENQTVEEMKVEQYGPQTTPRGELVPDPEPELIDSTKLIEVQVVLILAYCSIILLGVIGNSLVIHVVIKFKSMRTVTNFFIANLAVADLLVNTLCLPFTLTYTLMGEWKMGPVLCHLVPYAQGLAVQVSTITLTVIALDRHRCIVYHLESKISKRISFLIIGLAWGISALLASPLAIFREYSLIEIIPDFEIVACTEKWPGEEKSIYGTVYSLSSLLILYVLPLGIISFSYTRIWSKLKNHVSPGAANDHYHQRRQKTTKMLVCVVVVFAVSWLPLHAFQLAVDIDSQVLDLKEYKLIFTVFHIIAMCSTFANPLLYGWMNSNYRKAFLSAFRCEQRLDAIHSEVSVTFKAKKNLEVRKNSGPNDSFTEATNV
TEST_SUMMARY: Displacement of [125I]-PYY from human neuropeptide Y2 receptor expressed in CHO cell membranes incubated for 60 mins by TopCount based method
Listed below: IC50 values for each entry.
Numbers only; they are read as nM.

>  <STRUCTURE_SMILES>
CC[C@](C)(NC(=O)[C@H](CC1CCCCC1)NC(=O)[C@H](Cc1ccncc1)NC(=O)[C@](C)(CC)NC(=O)[C@H]1CCCN1C(=O)[C@H](CO)NC(C)=O)C(=O)N[C@@H](CC(N)=O)C(=O)N[C@@H](CCCCN)C(=O)NC(C)(C)C(=O)N[C@H](C(=O)N[C@@H](CCCNC(=N)N)C(=O)N[C@@H](CCC(N)=O)C(=O)N[C@@H](CCCNC(=N)N)C(=O)N[C@@H](CC1CCCCC1)C(N)=O)[C@@H](C)O

>  <UOM>
nM

>  <IC50>
0.57

$$$$
>  <STRUCTURE_SMILES>
CC(C)C[C@H](NC(=O)[C@H](CC(N)=O)NC(=O)[C@H](CC1CCCCC1)NC(=O)[C@H](CC1CCCCC1)NC(=O)[C@H](Cc1cnc[nH]1)NC(=O)[C@H](CCCNC(=N)N)NC(=O)[C@H]1CCCN1C(=O)[C@H](CO)NC(=O)C(C)C)C(=O)NC(C)(C)C(=O)N[C@H](C(=O)N[C@@H](CCCNC(=N)N)C(=O)N[C@@H](CCC(N)=O)C(=O)N[C@@H](CCCNC(=N)N)C(=O)N[C@@H](CC1CCCCC1)C(N)=O)[C@@H](C)O

>  <UOM>
nM

>  <IC50>
1.3

$$$$
>  <STRUCTURE_SMILES>
CC[C@](C)(NC(=O)[C@H]1C[C@H](O)CN1C(=O)[C@H](CO)NC(C)=O)C(=O)N[C@@H](Cc1ccncc1)C(=O)N[C@@H](CC1CCCCC1)C(=O)N[C@@H](CC(C)(C)C)C(=O)N[C@@H](CC(N)=O)C(=O)N[C@@H](CCCCN)C(=O)NC(C)(C)C(=O)N[C@H](C(=O)N[C@@H](CCCNC(=N)N)C(=O)N[C@@H](CCC(N)=O)C(=O)N[C@@H](CCCNC(=N)N)C(=O)N[C@@H](CC1CCCCC1)C(N)=O)[C@@H](C)O

>  <UOM>
nM

>  <IC50>
0.58

$$$$

IN: Would you mind telling me what IC50 value was observed for CC[C@@](C)(NC(=O)[C@H]1CCCN1C(=O)[C@H](CO)NC(C)=O)C(=O)N[C@@H](Cc1cnc[nH]1)C(=O)N[C@@H](CC1CCCCC1)C(=O)N[C@@H](CC1CCCCC1)C(=O)N[C@@H](CC(N)=O)C(=O)N[C@@H](CC(C)C)C(=O)NC(C)(C)C(=O)N[C@H](C(=O)N[C@@H](CCCNC(=N)N)C(=O)N[C@@H](CCC(N)=O)C(=O)N[C@@H](CCCNC(=N)N)C(=O)N[C@@H](CC1CCCCC1)C(N)=O)[C@@H](C)O ?
OUT: 3.8

IN: Look up IC50 for this compound: CC(C)C[C@H](NC(=O)[C@H](CC(N)=O)NC(=O)[C@H](CC1CCCCC1)NC(=O)[C@H](CC1CCCCC1)NC(=O)[C@H](Cc1cnc[nH]1)NC(=O)[C@H](CCCNC(=N)N)NC(=O)[C@H]1CCCN1C(=O)[C@H](CO)NC(=O)c1ccccc1)C(=O)NC(C)(C)C(=O)N[C@H](C(=O)N[C@@H](CCCNC(=N)N)C(=O)N[C@@H](CCC(N)=O)C(=O)N[C@@H](CCCNC(=N)N)C(=O)N[C@@H](CC1CCCCC1)C(N)=O)[C@@H](C)O
OUT: 1.5
